The origin of these recorded values is patent US20220340597A1.

Below: a set of entries, each annotated with reported hERG IC20/TLR7 IC50.
target-of-assay: hERG channel (Homo sapiens, UniProt Q12809)
Construct: expressed in transfected cells; host or cells: CHO (Chinese hamster ovary), CHOhERG
Sequence (Q12809 whole entry): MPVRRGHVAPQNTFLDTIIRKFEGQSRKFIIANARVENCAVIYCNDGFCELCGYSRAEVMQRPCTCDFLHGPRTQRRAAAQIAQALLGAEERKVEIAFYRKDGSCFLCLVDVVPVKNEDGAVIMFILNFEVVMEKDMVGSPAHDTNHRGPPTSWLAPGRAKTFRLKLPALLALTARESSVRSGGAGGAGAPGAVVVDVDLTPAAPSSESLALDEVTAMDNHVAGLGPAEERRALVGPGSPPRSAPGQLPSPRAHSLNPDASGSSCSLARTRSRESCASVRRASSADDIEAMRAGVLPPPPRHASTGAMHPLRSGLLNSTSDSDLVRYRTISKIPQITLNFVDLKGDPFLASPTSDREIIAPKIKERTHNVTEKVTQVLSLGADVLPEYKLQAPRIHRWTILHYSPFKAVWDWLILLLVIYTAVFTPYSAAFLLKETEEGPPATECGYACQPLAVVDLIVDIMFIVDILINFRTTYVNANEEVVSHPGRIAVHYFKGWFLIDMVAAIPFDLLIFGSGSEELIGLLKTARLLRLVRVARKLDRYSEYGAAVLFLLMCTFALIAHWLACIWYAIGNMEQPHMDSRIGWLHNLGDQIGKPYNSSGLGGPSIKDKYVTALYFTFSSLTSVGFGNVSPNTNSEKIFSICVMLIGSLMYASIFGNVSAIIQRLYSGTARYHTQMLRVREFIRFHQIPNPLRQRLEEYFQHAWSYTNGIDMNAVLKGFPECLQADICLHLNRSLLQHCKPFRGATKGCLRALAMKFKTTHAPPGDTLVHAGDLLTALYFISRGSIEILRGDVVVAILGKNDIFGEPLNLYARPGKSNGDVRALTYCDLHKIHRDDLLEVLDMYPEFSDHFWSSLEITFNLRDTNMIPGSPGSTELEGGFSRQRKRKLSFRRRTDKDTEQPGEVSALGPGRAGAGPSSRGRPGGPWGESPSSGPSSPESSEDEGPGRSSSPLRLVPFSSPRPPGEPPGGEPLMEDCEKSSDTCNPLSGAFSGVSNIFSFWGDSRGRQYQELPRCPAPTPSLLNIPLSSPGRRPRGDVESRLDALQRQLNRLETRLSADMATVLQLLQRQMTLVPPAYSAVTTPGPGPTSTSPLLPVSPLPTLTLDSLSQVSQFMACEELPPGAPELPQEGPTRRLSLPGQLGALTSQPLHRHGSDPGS
protocol: hERG channel inhibition assay (patch-clamp, CHOhERG cells)
Format: cell-based
condition-set: safety ratio

molecule: [2H]c1ccc2c(N3C[C@@H]4CN(Cc5ccc(N6CC7CNCC(C6)O7)nc5C)CCN4[C@H](C)C3)ccc(C#N)c2n1
data-value: >588

Problem: Bench note: what hERG IC20/TLR7 IC50 did C[C@@H]1CN(c2ccc(C#N)c3ncccc23)C[C@@H]2CN(Cc3ccc4c(c3)CNCC4)CCN21 [Example 5] show?
Result: >588

Problem: Bench note: what hERG IC20/TLR7 IC50 did C[C@@H]1CN(c2ccc(C#N)c3ncccc23)C[C@@H]2CN(c3cccc4c3CNC4)CCN21 show?
Result: 1723

Problem: Bench note: what hERG IC20/TLR7 IC50 did [2H]c1ccc2c(N3C[C@@H]4CN(c5ccc(CCN6C[C@H](OC)[C@@H](N)C6)cn5)CCN4[C@H](C)C3)ccc(C#N)c2n1 show?
Result: >2000

###

Below: a set of entries, each annotated with reported hERG IC20/TLR8 IC50.
target-of-assay: hERG channel (Homo sapiens)
Construct: expressed in transfected cells; host or cells: CHO (Chinese hamster ovary), CHOhERG
protocol: hERG channel inhibition assay (patch-clamp, CHOhERG cells)
Assay type: cell-based
condition-set: safety ratio

Example entries begin here.
compound: C[C@@H]1CN(c2ccc(C#N)c3ncccc23)C[C@@H]2CN(Cc3ccc4c(c3)CNCC4)CCN21 [Example 5]
target-of-assay: hERG channel (Homo sapiens)
data-value: >833
//
compound: Cc1cc(N2CCNCC2)ncc1N1CCN2CCN(c3ccc(C#N)c4ncccc34)CC2C1 (stereo not shown)
target-of-assay: hERG channel (Homo sapiens)
data-value: >1250
//
compound: C[C@@H]1CN(c2ccc(C#N)c3ncccc23)C[C@@H]2CN(c3cc(N4CCNCC4)ccn3)CCN21
target-of-assay: hERG channel (Homo sapiens)
data-value: 339

Problem: Bench note: what hERG IC20/TLR8 IC50 did [2H]c1ccc2c(N3C[C@@H]4CN(Cc5ccc(N6CC7(CN(C)C7)C6)nc5C)CCN4[C@H](C)C3)ccc(C#N)c2n1 show?
Result: >2000

Problem: Bench note: what hERG IC20/TLR8 IC50 did [2H]c1ccc2c(N3C[C@@H]4CN(c5ccc(N6C[C@@H](N)[C@H](OC)C6)nc5)CCN4[C@@H](C)C3)ccc(C#N)c2n1 show?
Result: >588

Problem: Bench note: what hERG IC20/TLR8 IC50 did CO[C@@H]1CN(c2ccnc(N3CCN4[C@@H](C3)CN(c3ccc(C#N)c5ncccc35)C[C@H]4C)n2)C[C@H]1N show?
Result: 173

Problem: Bench note: what hERG IC20/TLR8 IC50 did Cc1cc(N2CCNCC2)cnc1N1CCN2[C@@H](C1)CN(c1cc(=O)n(C)c3ncccc13)C[C@H]2C show?
Result: >163

###

target-of-assay: UniProt:Q9NR96
Sequence (Q9NR96 26-1032): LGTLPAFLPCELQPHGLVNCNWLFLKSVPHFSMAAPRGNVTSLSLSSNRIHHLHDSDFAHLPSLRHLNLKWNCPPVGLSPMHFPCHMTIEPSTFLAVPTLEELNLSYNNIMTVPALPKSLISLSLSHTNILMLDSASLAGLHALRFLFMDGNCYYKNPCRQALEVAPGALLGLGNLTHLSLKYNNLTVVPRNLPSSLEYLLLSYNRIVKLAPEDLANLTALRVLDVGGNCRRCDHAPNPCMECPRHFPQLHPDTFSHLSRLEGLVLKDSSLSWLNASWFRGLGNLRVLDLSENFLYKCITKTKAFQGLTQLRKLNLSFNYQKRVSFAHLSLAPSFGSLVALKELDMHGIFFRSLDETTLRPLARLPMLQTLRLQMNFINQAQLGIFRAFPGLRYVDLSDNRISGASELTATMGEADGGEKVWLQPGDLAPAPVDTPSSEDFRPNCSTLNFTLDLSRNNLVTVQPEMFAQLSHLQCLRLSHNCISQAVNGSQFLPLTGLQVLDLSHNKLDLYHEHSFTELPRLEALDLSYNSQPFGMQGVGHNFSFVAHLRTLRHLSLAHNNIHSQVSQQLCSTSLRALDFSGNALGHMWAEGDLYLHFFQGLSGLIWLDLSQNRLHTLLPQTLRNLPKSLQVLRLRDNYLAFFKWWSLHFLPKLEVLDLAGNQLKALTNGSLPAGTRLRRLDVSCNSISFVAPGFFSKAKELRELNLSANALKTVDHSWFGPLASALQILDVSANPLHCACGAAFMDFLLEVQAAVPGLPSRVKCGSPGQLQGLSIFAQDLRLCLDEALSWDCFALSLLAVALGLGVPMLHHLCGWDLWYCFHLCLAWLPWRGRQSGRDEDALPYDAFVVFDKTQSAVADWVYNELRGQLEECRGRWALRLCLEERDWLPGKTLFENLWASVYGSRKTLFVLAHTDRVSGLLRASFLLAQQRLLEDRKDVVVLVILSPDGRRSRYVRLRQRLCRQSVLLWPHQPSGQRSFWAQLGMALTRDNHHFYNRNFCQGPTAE
protocol: HEK293-Blue-hTLR-9 cells assay
condition-set: HEK293-Blue-hTLR9 cells, ODN2006 stimulation, 20 hrs, SEAP reporter; read-out: HEK/hTLR9 IC50
Experimental: The following tests were carried out in order to determine the activity of the compounds of formula (I) and (Ia) in HEK293-Blue-hTLR-7/8/9 cells assay. HEK293-Blue-hTLR-9 Cells Assay: A stable HEK293-Blue-hTLR-9 cell line was purchased from InvivoGen (Cat. #: hkb-htlr9, San Diego, Calif., USA). […] Then 20 μL of the supernatant from each well was incubated with 180 μL Quanti-blue substrate solution at 37° C. for 2 h and the absorbance was read at 620-655 nm using a spectrophotometer. […]
experimental-endpoint: IC50 (µM)
Note: unit µM is implicit; provide only the numeric part.

Problem: Bench note: what IC50 did [2H]c1ccc2c(N3C[C@@H]4CN(c5ccc([C@H]6CNCCO6)cc5)CCN4[C@@H](C)C3)ccc(C#N)c2n1 show?
Result: 0.146

Problem: Bench note: what IC50 did [2H]c1ccc2c(N3C[C@@H]4CN(c5ccc(CCN6C[C@H](OC)[C@@H](N)C6)cn5)CCN4[C@H](C)C3)ccc(C#N)c2n1 show?
Result: 0.111

Problem: Bench note: what IC50 did C[C@@H]1CN(c2ccc(C#N)c3ncccc23)C[C@@H]2CN(Cc3cccc4c3CNCC4)CCN21 show?
Result: 0.079

Problem: Bench note: what IC50 did [2H]c1ccc2c(N3C[C@@H]4CN(Cc5ccc(N6CC7CCC(C6)N7)nc5C)CCN4[C@H](C)C3)ccc(C#N)c2n1 show?
Result: 0.045

Problem: Bench note: what IC50 did CO[C@@H]1CN(c2ccc(CCN3CCN4[C@@H](C3)CN(c3ccc(C#N)n5ncc(F)c35)C[C@H]4C)cn2)C[C@H]1N show?
Result: 0.083

Problem: Bench note: what IC50 did CO[C@@H]1CN(c2nccc(N3CCN4[C@@H](C3)CN(c3ccc(C#N)c5ncccc35)C[C@H]4C)n2)C[C@H]1N show?
Result: 0.068

Problem: Bench note: what IC50 did C[C@@H]1CN(c2ccc(C#N)c3ncccc23)C[C@@H]2CN(c3cc(N4CCNCC4)ccn3)CCN21 show?
Result: 0.042
